- System: E. coli clinical strain 2019XJ25
- protocol notes: microbe, parasite or virus in culture
- Assay type: cell-based, Escherichia coli
- condition context: clinical strain 2019XJ25
Where a SMILES comes first, the peptide text is derived from it.
MIC reference

compound	target system	MIC
CS(=O)(=O)c1ccc([C@@H](OC(=O)CCCCC(=O)N[C@@H](CCCNC(=N)N)C(N)=O)[C@@H](CF)NC(=O)C(Cl)Cl)cc1	E. coli clinical strain 2019XJ25	>100 µM
N=C(N)NCCC[C@H](NC(=O)[C@H](CCCNC(=N)N)NC(=O)[C@H](CCCNC(=N)N)NC(=O)[C@@H](N)CCCNC(=N)N)C(N)=O [Compound D4] (H-RRRR-NH2)	E. coli clinical strain 2019XJ25	>100 µM

**Query** Suppose we examine the compound N=C(N)NCCC[C@H](NC(=O)[C@@H](N)CCCNC(=N)N)C(N)=O [Compound D3] (H-Arg-Arg-NH2) ; what MIC value has been reported?
**Result** >100 µM

---

- System: MRSA (ATCC 43300)
- protocol notes: microbe, parasite or virus in culture
- Format: cell-based, methicillin-resistant S. aureus
- condition context: ATCC 43300
Where a SMILES comes first, the peptide text is derived from it.
MIC reference

compound	MIC
CS(=O)(=O)c1ccc([C@@H](OC(=O)CCCC(=O)N[C@@H](CCCNC(=N)N)C(N)=O)[C@@H](CF)NC(=O)C(Cl)Cl)cc1	>100 µM
COC(=O)[C@H](CCCNC(=N)N)NC(=O)CCCCC(=O)O[C@H](c1ccc(S(C)(=O)=O)cc1)[C@@H](CF)NC(=O)C(Cl)Cl	>100 µM

**Query** Suppose we examine the compound N=C(N)NCCC[C@H](NC(=O)[C@H](CCCNC(=N)N)NC(=O)[C@H](CCCNC(=N)N)NC(=O)[C@@H](N)CCCNC(=N)N)C(N)=O [Compound D4] (H-RRRR-NH2) ; what MIC value has been reported?
**Result** >100 µM

**Query** // query: COC(=O)[C@H](CCCNC(=N)N)NC(=O)CCCC(=O)O[C@H](c1ccc(S(C)(=O)=O)cc1)[C@@H](CF)NC(=O)C(Cl)Cl
**Result** >100 µM

**Query** // query: N=C(N)NCCC[C@H](N)C(N)=O [Compound D2]
**Result** >100 µM

**Query** // query: CS(=O)(=O)c1ccc([C@@H](OC(=O)CCC(=O)N[C@@H](CCCNC(=N)N)C(N)=O)[C@@H](CF)NC(=O)C(Cl)Cl)cc1 [Compound E2]
**Result** 25 µM

---

- Test system: S. aureus (ATCC 292130)
- protocol notes: microbe, parasite or virus in culture
- Type: cell-based, Staphylococcus aureus
- condition context: ATCC 292130
Where a SMILES comes first, the peptide text is derived from it.
reported endpoint: MIC

Answered examples (3):
molecule	target system	result
CS(=O)(=O)c1ccc([C@@H](OC(=O)CCCC(=O)N[C@@H](CCCNC(=N)N)C(N)=O)[C@@H](CF)NC(=O)C(Cl)Cl)cc1	S. aureus (ATCC 292130)	>100 µM
N=C(N)NCCC[C@H](NC(=O)[C@H](CCCNC(=N)N)NC(=O)[C@H](CCCNC(=N)N)NC(=O)[C@@H](N)CCCNC(=N)N)C(N)=O [Compound D4] (H-RRRR-NH2)	S. aureus (ATCC 292130)	>100 µM
N=C(N)NCCC[C@H](NC(=O)[C@H](CCCNC(=N)N)NC(=O)[C@H](CCCNC(=N)N)NC(=O)[C@H](CCCNC(=N)N)NC(=O)[C@H](CCCNC(=N)N)NC(=O)[C@H](CCCNC(=N)N)NC(=O)[C@H](CCCNC(=N)N)NC(=O)[C@@H](N)CCCNC(=N)N)C(N)=O	S. aureus (ATCC 292130)	25 µM

# input for lookup
**Query** Value wanted: MIC (S. aureus (ATCC 292130)) of entry COC(=O)[C@H](CCCNC(=N)N)NC(=O)CCCCC(=O)O[C@H](c1ccc(S(C)(=O)=O)cc1)[C@@H](CF)NC(=O)C(Cl)Cl
**Result** >100 µM
